Hello, the source for this data is the supplement of paper PMC10065799, in case you need it.

# TESTED SYSTEM: Jak2 (UniProt O60674)
# Sequence (O60674 whole entry, looked up): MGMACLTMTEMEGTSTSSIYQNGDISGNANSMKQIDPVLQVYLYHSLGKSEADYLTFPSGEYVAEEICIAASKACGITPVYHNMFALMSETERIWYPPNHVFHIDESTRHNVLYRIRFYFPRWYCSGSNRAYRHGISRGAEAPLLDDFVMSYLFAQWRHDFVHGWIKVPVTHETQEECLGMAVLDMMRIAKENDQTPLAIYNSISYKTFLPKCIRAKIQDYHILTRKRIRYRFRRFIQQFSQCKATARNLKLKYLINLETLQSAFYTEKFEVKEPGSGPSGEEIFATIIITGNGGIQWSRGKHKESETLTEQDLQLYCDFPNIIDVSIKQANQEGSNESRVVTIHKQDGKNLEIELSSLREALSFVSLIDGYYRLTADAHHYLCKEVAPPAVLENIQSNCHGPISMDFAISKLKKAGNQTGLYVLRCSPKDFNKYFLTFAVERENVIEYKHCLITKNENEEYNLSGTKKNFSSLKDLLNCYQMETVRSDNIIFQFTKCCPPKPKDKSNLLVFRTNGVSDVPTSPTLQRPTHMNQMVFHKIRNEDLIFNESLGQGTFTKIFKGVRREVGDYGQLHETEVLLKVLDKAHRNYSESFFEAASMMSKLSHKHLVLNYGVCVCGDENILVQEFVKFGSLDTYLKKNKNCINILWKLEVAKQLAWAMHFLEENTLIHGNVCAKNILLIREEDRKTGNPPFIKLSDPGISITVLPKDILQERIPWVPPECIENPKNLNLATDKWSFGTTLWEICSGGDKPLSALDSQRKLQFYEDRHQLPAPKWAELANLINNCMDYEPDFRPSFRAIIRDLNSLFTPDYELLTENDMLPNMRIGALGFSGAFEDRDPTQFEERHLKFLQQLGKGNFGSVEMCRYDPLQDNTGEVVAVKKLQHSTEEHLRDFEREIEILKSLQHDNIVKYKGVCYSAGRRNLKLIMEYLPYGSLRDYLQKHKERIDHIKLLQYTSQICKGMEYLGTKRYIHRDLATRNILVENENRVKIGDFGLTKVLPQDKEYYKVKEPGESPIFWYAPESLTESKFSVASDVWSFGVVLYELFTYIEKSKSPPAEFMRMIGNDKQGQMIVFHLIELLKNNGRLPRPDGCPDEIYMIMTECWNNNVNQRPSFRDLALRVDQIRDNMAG
# EXPERIMENT SUMMARY: phosphorylation enrichment, bacterial display (enrichment ratio); higher = better substrate or ligand; peptides without Tyr show the background;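 further: 11-residue human phosphosite peptides and single-mutation variants displayed on the E. coli surface, counted by deep sequencing, each peptide's frequency after selection divided by its frequency in the unselected input library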;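 further: frequency after pTyr selection over input frequency; kinase dosed for 20-30% of maximal phosphorylation in three min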
PROPERTY NAME: phosphorylation enrichment
Would you mind answering with just the numeric figure?

Some sequences with recorded phosphorylation enrichment:
>  <SEQUENCE CONTENT>
RFLERYIYNRE [HLA-DPB1_Y57]

>  <phosphorylation enrichment>
0.451

$$$$
>  <SEQUENCE CONTENT>
LPKVSYVKAID [GLRA1_Y307]

>  <phosphorylation enrichment>
0.563

$$$$
>  <SEQUENCE CONTENT>
TVSSDYLHPQY [CCPG1_Y569_F566S]

>  <phosphorylation enrichment>
0.536

$$$$

// phosphorylation enrichment lookup, key: GMIQAYSSSQR [DES_Y5_S2I] 0.442

GET /values?readout=phosphorylation enrichment&item= LGPSDYFGETA [PRKAR1A_Y323_I327T] 0.749

Look up phosphorylation enrichment: RLLRGYRQDAF [HLA-A_Y137_F133L_YF] 0.854

# input sequence: RLRKFHLGKFL [KLB_Y906_Y906H_YF] ; wanted: its phosphorylation enrichment 0.698

Quick one: phosphorylation enrichment of KKFPDYIQIAM [SGMS2_Y59_YF] ? 1.07

Item under review: CSPLLYKVIMS [OR8D4_Y132_R133K] . Reported phosphorylation enrichment? 0.989

Bench note: what phosphorylation enrichment did KFFRVYQGQQP [MUTYH_Y494_V490F] show? 0.627

* * *

# TESTED SYSTEM: Jak2 (UniProt O60674)
# EXPERIMENT SUMMARY: phosphorylation enrichment, bacterial display (enrichment ratio); higher = better substrate or ligand; peptides without Tyr show the background
Please use the following phosphorylation enrichment ranges when assigning a class: lower: < 0.7; middle: ≥ 0.7 and < 1; upper: ≥ 1

>  <SEQUENCE CONTENT>
HQKKPYCHAHN [NRAP_Y53]

>  <TESTED SYSTEM>
Jak2 (UniProt O60674)

>  <LABEL>
upper

$$$$
>  <SEQUENCE CONTENT>
GDPVQYNRTTD [MLPH_Y454]

>  <TESTED SYSTEM>
Jak2 (UniProt O60674)

>  <LABEL>
middle

$$$$
>  <SEQUENCE CONTENT>
MCTVDYLLRLQ [RYR1_Y3921_I3916M]

>  <TESTED SYSTEM>
Jak2 (UniProt O60674)

>  <LABEL>
upper

$$$$
>  <SEQUENCE CONTENT>
GRLFAYPDTHR [CAT_Y358]

>  <TESTED SYSTEM>
Jak2 (UniProt O60674)

>  <LABEL>
lower

$$$$
>  <SEQUENCE CONTENT>
VKANTYEKFWL [GATM_Y100_P105L_YF]

>  <TESTED SYSTEM>
Jak2 (UniProt O60674)

>  <LABEL>
middle

$$$$

State the band of VFLARYGPAWR [CYP2D6_Y124] middle

Into which category would you place LKGQVYILGWE [ASS1_Y359_R363W] ? upper

Any idea which band IKGNMYYENSY [EGFR_Y112_R108K] is in? lower

Bin this entry: FGGLRYGFGVL [KRTAP20-2_Y13_YF] middle

Which class is correct for the following sequence? FGFPGYQSKHF [TIMP3_Y177_YF] lower

Which class holds DFDHSYFFIAT [ESD_Y262_G257D_YF] ? upper

Lab note: which band did PQDVTYAQLHS [LILRB4_Y412] land in? middle

Band for the recorded phosphorylation enrichment of FLAVGYHMPHI [IDS_Y225_K227M] ? middle

Returns: class label. Input: TLSGTYQFIIA [FOXL2_Y81_I80T_YF] middle

Form: Item = GCKNRYDEDKP [THAP1_Y14_K16E] ; Class = ? lower

Which band does SVVMPYEPPEV [TP53_Y220_V218M] fall in? middle

Place this sequence in its band: FPKVRYHWLVL [APTX_Y214_A212V_YF] upper

Kindly state the category for this sequence: LDYNEYFRNLN [HPRT1_Y198_D201N] upper

// bin(item) where item = VVSLFYGTALF [OR10C1_Y251_M246V] upper

// bin(item) where item = CTSIHYNYMCN [TP53_Y234_T231S] middle

Band of VREIRCQGGNR [VWF_Y1570_Y1570C] ? middle

Class (by measured phosphorylation enrichment) for HLVLNYGVCFC [JAK2_Y613_V617F] upper

The entry to classify is LEHCQYVTQKV [ALDOB_Y204_E207Q] ; which class holds it? upper

Note: place this sequence into its band. Item: PASLSYLSFEG [EXOSC3_Y143] upper

Could you tell me which band VRHRRYKHTHE [CTCF_Y343] belongs to? lower

For this sequence, which bin applies? SLHPGYNFRYA [P2RX7_Y291_Y288H] middle

Would you mind sorting ERNARYRTPKI [PTK2B_Y699] into the appropriate category? lower

* * *

Catalogue of phosphorylation enrichment readings, one per entry.
# TESTED SYSTEM: FGFR3 (UniProt P22607)
# Sequence (P22607 whole entry, looked up): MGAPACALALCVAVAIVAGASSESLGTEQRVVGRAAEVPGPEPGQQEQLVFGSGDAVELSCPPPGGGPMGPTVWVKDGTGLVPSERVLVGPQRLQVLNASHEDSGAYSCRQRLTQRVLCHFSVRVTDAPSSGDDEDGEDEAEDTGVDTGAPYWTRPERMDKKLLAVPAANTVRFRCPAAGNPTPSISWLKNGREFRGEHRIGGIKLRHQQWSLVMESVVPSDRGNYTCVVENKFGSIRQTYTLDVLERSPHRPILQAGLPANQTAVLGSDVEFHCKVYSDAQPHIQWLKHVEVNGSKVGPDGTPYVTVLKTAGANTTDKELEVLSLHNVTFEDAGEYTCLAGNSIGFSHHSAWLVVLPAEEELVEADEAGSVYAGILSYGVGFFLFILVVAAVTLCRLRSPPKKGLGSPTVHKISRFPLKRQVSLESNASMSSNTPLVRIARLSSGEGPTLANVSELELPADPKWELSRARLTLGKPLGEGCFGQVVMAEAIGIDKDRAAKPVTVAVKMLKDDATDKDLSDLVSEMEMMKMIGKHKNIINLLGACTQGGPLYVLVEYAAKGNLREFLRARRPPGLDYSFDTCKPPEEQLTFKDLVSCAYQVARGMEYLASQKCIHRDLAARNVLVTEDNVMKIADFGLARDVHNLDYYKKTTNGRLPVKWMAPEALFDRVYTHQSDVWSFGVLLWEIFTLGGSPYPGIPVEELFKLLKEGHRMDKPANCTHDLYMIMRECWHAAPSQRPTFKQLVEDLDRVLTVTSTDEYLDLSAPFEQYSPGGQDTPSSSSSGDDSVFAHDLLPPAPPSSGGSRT
# EXPERIMENT SUMMARY: phosphorylation enrichment, bacterial display (enrichment ratio); higher = better substrate or ligand; peptides without Tyr show the background
Please give the numeric answer without any surrounding text.

Solved entries (count: 3):
>  <SEQUENCE CONTENT>
QISRDYGVLLE [PRDX3_Y172]

>  <TESTED SYSTEM>
FGFR3 (UniProt P22607)

>  <phosphorylation enrichment>
0.69

$$$$
>  <SEQUENCE CONTENT>
YQKDVYDIPPS [NEDD9_Y177]

>  <TESTED SYSTEM>
FGFR3 (UniProt P22607)

>  <phosphorylation enrichment>
0.499

$$$$
>  <SEQUENCE CONTENT>
GMKIVYVYVKK [DNAI2_Y5_E2K]

>  <TESTED SYSTEM>
FGFR3 (UniProt P22607)

>  <phosphorylation enrichment>
0.587

$$$$

What does the record list as phosphorylation enrichment for KLQKFYRKNPD [EHHADH_Y683_Q685K_YF] ? 0.329

Tell me the measured phosphorylation enrichment of SVMAEYGLFGA [VSX2_Y219_YF] , please. 0.553

Please look up its phosphorylation enrichment: GMAHNYRNRSQ [AASS_Y188_S191R] 0.401

Which phosphorylation enrichment reading was recorded for the sequence GGYTCCCDGKK [PROS1_Y266_Y266C] ? 0.618

* * *

Collected phosphorylation enrichment values appear next to each entry.
# TESTED SYSTEM: Hck (UniProt P08631)
# Sequence (P08631 whole entry, looked up): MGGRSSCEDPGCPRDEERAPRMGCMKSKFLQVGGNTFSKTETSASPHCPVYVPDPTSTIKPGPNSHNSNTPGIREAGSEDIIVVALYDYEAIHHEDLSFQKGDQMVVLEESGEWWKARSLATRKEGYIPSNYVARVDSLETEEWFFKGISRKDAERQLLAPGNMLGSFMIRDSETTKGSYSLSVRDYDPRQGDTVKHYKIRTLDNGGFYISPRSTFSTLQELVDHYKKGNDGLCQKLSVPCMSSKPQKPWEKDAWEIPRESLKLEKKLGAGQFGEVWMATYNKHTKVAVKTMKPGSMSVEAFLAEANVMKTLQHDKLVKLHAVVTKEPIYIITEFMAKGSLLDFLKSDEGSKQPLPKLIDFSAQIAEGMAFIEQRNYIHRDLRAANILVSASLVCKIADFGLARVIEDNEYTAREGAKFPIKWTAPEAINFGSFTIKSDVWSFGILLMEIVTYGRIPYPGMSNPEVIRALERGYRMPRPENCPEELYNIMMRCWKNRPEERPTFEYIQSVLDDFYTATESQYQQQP
# EXPERIMENT SUMMARY: phosphorylation enrichment, bacterial display (enrichment ratio); higher = better substrate or ligand; peptides without Tyr show the background

Some solved entries appear below for comparison.
>  <SEQUENCE CONTENT>
PAGSGYPAFLG [ATP6V1A_Y374_D371G_YF]

>  <VALUE OBSERVED>
0.626

$$$$
>  <SEQUENCE CONTENT>
RDLRTYIMPAH [PNMT_Y256]

>  <VALUE OBSERVED>
0.682

$$$$
>  <SEQUENCE CONTENT>
IDDLEYLHSQG [STK11_Y166_G163D]

>  <VALUE OBSERVED>
0.531

$$$$
>  <SEQUENCE CONTENT>
WQQQSYLDSVI [CTNNB1_Y30_G34V]

>  <VALUE OBSERVED>
0.529

$$$$

Tell me the measured phosphorylation enrichment of SWDKRYCEAGF [ITGA2B_Y197] , please. 0.648

Look up phosphorylation enrichment for this sequence: PPQFSYGLQTQ [SRA1_Y35] 0.443

Which phosphorylation enrichment is listed for SLIDGYFRLTA [JAK2_Y372_YF] ? 0.583

Which phosphorylation enrichment reading was recorded for the sequence NREGVYTVFAP [TGFBI_Y537] ? 10

Sample FRQLQYCPSVE [CTNND2_Y508_YF] — what was its phosphorylation enrichment? 0.499

Data request, read-out phosphorylation enrichment, for DVQNEYDSNHC [ZFYVE16_Y36_A35E] 0.576

* * *

# TESTED SYSTEM: Fes (UniProt P07332)
# Sequence (P07332 whole entry, looked up): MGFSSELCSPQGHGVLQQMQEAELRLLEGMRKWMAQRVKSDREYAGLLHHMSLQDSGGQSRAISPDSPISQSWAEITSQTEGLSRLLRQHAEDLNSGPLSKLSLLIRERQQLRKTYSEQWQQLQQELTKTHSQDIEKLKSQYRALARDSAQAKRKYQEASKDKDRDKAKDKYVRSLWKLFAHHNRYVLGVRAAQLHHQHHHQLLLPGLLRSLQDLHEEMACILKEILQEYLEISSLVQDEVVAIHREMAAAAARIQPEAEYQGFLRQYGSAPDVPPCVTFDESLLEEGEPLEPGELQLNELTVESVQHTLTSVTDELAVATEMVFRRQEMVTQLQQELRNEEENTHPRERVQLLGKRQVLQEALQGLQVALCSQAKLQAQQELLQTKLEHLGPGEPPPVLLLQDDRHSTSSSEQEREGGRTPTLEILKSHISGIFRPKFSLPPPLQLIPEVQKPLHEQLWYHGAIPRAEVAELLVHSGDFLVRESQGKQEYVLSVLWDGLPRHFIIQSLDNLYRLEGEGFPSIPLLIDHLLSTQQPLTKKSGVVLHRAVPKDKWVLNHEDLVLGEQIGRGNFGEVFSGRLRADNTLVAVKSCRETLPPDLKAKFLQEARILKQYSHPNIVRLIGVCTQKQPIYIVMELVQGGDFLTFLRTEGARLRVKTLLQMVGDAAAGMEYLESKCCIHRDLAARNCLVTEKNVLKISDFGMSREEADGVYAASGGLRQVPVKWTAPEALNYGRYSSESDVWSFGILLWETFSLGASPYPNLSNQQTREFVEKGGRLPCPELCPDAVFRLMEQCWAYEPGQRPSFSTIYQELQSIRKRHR
# EXPERIMENT SUMMARY: phosphorylation enrichment, bacterial display (enrichment ratio); higher = better substrate or ligand; peptides without Tyr show the background
PROPERTY NAME: phosphorylation enrichment

Known results for sequences:
>  <SEQUENCE CONTENT>
QYKGKYLAKHN [CASK_Y712_D710G]

>  <phosphorylation enrichment>
0.979

$$$$
>  <SEQUENCE CONTENT>
VRLTEYPCAGL

>  <phosphorylation enrichment>
0.781

$$$$
>  <SEQUENCE CONTENT>
ALKKPYGVLYK [RPF2_Y59]

>  <phosphorylation enrichment>
0.775

$$$$
>  <SEQUENCE CONTENT>
GTFEDYVEGLR [MYL6_Y89_YF]

>  <phosphorylation enrichment>
1.11

$$$$
>  <SEQUENCE CONTENT>
PVQAVYQKVVA [HBB_Y131_A130V]

>  <phosphorylation enrichment>
0.532

$$$$
>  <SEQUENCE CONTENT>
CRWKRYQCSHD [GDPD5_Y30_R32C]

>  <phosphorylation enrichment>
0.666

$$$$
>  <SEQUENCE CONTENT>
LRVKMYNFLRS [ADGRG7_Y760]

>  <phosphorylation enrichment>
3.22

$$$$
>  <SEQUENCE CONTENT>
ERNARYRTPKI [PTK2B_Y699]

>  <phosphorylation enrichment>
0.515

$$$$

Given the entry LRNIDYHRLDG [ATRX_Y2083_Y2084H] , report its measured phosphorylation enrichment. 0.606

Record request: phosphorylation enrichment value, item DPKFHYDNTAG [KDR_Y1214] 0.79

What phosphorylation enrichment value was documented for this sequence, DIRAQYDELAR [KRT18_Y256] ? 1.01

Quick check: phosphorylation enrichment of FSDPSYVKQME [CDC5L_Y464_YF] ? 0.939

GET /values?readout=phosphorylation enrichment&item= PVPKTYDMLKA [PKP2_Y108] 1.02

May I ask what phosphorylation enrichment has been recorded for PDGREYIYVDP [PDGFRA_Y572_H570R] ? 1.35
